system: PC9 cell line; experiment: Cellular anti-proliferative assay of VPS34 inhibitors in combination with a second therapeutic agent (Cell Titer Glo, 72 hrs); assay type: cell-based, human; details: in combination with Erlotinib (Compound Y)
Met means recorded Combination Index is 1 or above; Not met means it is below 1.

INSERT INTO assay_data (compound, assigned_category) VALUES
  ('Cc1c(-c2ccnc(NC(=O)C3CC3)c2)cnc(Cl)c1NS(=O)(=O)c1ccc(F)cc1F [Compound I-308]', 'Met'),
  ('CC(=O)Nc1cc(-c2cnc(C)c(NS(=O)(=O)c3ccc(Cl)cc3F)c2)ccn1 [Compound I-94]', 'Not met'),
  ('CC(=O)Nc1cc(-c2cnc(Cl)c(NS(=O)(=O)c3ccc(F)cc3F)c2C)ccn1 [Compound I-153]', 'Not met'),
  ('Cc1ncc(-c2ccnc(Nc3ccncn3)c2)cc1NS(=O)(=O)N(C)C [Compound I-217]', 'Not met'),
  ('CC(=O)Nc1cc(-c2cnc(C)c(NS(=O)(=O)N(C)C)c2)ccn1 [Compound I-32]', 'Not met'),
  ('Cc1nccc(Nc2cc(-c3cnc(Cl)c(NS(=O)(=O)c4ccc(F)cc4F)c3C)ccn2)n1 [Compound I-299]', 'Met');

----------
Listed here: items and their measured pIC50.
biological target: UniProt:Q8NEB9; test: Human VPS34 enzyme assay (Adapta TR-FRET ADP detection); assay type: biochemical; details: IC50 range class
Sequence (Q8NEB9 whole entry): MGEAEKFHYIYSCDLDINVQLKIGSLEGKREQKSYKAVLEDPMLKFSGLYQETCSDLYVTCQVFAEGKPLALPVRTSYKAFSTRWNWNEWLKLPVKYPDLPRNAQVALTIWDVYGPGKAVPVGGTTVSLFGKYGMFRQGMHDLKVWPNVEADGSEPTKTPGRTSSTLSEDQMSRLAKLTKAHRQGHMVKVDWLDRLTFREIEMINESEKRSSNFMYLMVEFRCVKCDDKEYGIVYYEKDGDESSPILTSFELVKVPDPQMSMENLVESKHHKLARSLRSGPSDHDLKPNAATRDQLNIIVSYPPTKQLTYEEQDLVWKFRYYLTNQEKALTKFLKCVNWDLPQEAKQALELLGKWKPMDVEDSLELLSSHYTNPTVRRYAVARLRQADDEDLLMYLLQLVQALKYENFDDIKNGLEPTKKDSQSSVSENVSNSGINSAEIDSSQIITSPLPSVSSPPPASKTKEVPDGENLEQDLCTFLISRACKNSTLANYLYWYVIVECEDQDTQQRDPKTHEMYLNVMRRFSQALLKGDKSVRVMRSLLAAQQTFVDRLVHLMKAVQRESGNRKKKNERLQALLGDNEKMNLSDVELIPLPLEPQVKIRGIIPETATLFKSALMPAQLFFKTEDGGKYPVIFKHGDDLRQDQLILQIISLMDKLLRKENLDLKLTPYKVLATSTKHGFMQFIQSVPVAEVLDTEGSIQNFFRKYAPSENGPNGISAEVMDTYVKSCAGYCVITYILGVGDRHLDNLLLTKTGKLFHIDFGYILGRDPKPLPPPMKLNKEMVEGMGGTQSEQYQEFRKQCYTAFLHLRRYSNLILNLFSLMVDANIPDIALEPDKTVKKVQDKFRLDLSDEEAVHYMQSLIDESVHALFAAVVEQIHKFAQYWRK
pIC50: −log10 of the molar value.
test-readout: pIC50

INSERT INTO results (smiles_representation, test_readout, value) VALUES
  ('CCOCCS(=O)(=O)c1cc(-c2ccnc(NC(C)=O)c2)cnc1N', 'pIC50', '7.00 to 7.30'),
  ('CC(=O)Nc1cc(-c2cnc3ccn(S(=O)(=O)C4CC4)c3c2)ccn1', 'pIC50', '> 8.00'),
  ('CC(=O)Nc1cc(-c2cnc(C)c(NS(=O)(=O)c3ccc(C(F)(F)F)nc3)c2)ccn1', 'pIC50', '> 8.00'),
  ('CC(=O)Nc1cc(-c2cnc(N)c(C(=O)Nc3cccc(F)c3)c2)ccn1', 'pIC50', '7.30 to 8.00'),
  ('CNc1ncc(-c2ccnc(NC(C)=O)c2)cc1S(=O)(=O)N(C(C)C)C(C)C', 'pIC50', '> 8.00'),
  ('Nc1cncc(-c2ccnc(N)c2)c1', 'pIC50', '< 7.00'),
  ('CC(=O)Nc1cc(-c2cnc(N(C)C)c(S(=O)(=O)NC(C)(C)C)c2C)ccn1', 'pIC50', '< 7.00'),
  ('CC(=O)Nc1cc(-c2cnc(N)c(S(=O)(=O)Cc3ccccc3Cl)c2)ccn1', 'pIC50', '7.30 to 8.00'),
  ('CC(=O)Nc1cc(-c2cncc(NC(=O)Cc3ccccc3)c2)ccn1', 'pIC50', '< 7.00'),
  ('COc1ncc(-c2ccnc(NC(C)=O)c2)cc1NC(=O)c1ccc(F)cc1F', 'pIC50', '< 7.00'),
  ('CC(=O)Nc1cc(-c2cnc(C)c(NS(=O)(=O)c3ccc(F)cc3F)c2)cc[n+]1[O-]', 'pIC50', '7.00 to 7.30'),
  ('Cc1nccc(Nc2cc(-c3cncc(C(=O)N(C)C45CC(C4)C5)c3)ccn2)n1', 'pIC50', '7.30 to 8.00'),
  ('CC(=O)Nc1cc(-c2cnc(C)c(NS(=O)(=O)c3ccc(F)cc3Cl)c2)ccn1', 'pIC50', '> 8.00'),
  ('CC(=O)Nc1cc(-c2cncc(S(=O)(=O)N3CC(F)(F)C3)c2)ccn1', 'pIC50', '7.30 to 8.00');
